These compounds were tested on Growth hormone secretagogue receptor type 1 (Homo sapiens); AC50 is the recorded read-out. Further: assay procedure not described here.
Sequence (Q92847 whole entry): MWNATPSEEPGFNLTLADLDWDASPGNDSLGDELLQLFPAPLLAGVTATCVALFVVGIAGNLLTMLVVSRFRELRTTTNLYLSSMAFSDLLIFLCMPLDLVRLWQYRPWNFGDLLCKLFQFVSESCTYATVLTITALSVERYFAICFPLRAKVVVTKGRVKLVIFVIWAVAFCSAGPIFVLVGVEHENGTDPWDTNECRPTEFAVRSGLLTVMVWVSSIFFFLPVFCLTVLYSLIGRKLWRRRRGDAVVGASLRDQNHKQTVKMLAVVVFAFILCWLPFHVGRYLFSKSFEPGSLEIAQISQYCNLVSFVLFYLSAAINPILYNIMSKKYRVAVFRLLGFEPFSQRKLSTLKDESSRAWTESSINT

O=c1oc2ccccc2c(O)c1Cc1c(O)c2ccccc2oc1=O
> 10 µM

Exam item: # input compound: `O=C(Nc1nc(-c2cc(Cl)cs2)c(N2CCN(C3CCCCC3)CC2)s1)c1cnc(N2CCC(C(=O)O)CC2)c(Cl)c1` ; wanted: its AC50
Marked response: > 10 µM

Exam item: # repeat for CCCCCCOC(=O)CCC(=O)CN [HEXAMINOLEVULINATE]
Marked response: > 30 µM

Exam item: What would you report for `COc1ccc(/C=C/C(=O)Nc2ccccc2C(=O)O)cc1OC` ?
Marked response: > 30 µM

Exam item: Same question, `NCCCC(O)(P(=O)(O)O)P(=O)(O)O` this time
Marked response: > 30 µM
